# Tested on: CCRF-CEM leukemia
# Procedure Text: NCI-60 one-dose screen, 48 h
# Condition Label: 10 µM unless noted
About 83,000 compounds went through this panel and 20% of them were active in at least one assay; those are over-represented in the sample as a whole. Active and inactive are the calls of the source. How the source made its calls: active means growth percent below 10; inactive means the rest.
API: response.call in true = active, false = inactive

Task: Each molecule tested received a call. Report the one for O=C(CN1N=C(c2ccc(F)cc2)CCC1=O)Nc1nc2ccccc2s1 .
Output: true

Task: Here is the next molecule: COc1ccc(C2N(c3cc(OC)c(OC)c(OC)c3)C(=O)C2(F)F)cc1F (stereo unspecified)
Output: false

Task: Lookup O=C(CCl)N1CCCc2ccccc21
Output: false

Task: Could you do the same for COc1ccc2[nH]c(-c3ccccc3)c(C=C(C#N)C#N)c2c1 , please?
Output: true

Task: Now try Cc1ccc(-c2nc(C#N)c(S(=O)(=O)N(C)CCO)o2)cc1 .
Output: true

Task: Repeat for the following molecule: O=C(O)c1cn(C2CC2)c2cc(N3CCN(Cc4nnc(Nc5ccccc5)o4)CC3)c(F)cc2c1=O
Output: false

====

Hi there, I'd appreciate the recorded growth for every entry that follows.
# Tested on: NCI-H460 lung
# Procedure Text: NCI-60 one-dose screen, 48 h (100 = growth as untreated, 0 = no growth, -100 = all killed)
# Condition Label: 10 µM unless noted
The panel holds about 83,000 compounds, 20% with a hit somewhere; the sample as a whole holds those more often. Calls of active or inactive are those of the source. How the source made its calls: active means growth percent below 10; inactive means the rest.

Task: // lookup growth for CCCCn1c2cc(OCc3cn(-c4ccc(Cl)cc4)nn3)ccc2c2ccnc(C)c21
Output: 21.5% (inactive)

Task: Request: O=C(Nc1nc(-c2ccccc2)cs1)c1cc(-c2ccc(Br)cc2)nc2ccccc12
Output: 31.3% (inactive)

Task: What do you get for O=C(Nc1nccs1)c1noc2ccccc12 ?
Output: 96.6% (inactive)

Task: Also CC1=C/C(=N\N=C2/C=C(C)CC(C)(C)C2)CC(C)(C)C1 , if possible.
Output: 104% (inactive)

Task: Likewise for O=Cc1[nH]c(Sc2ccccc2)c2ccccc12 ?
Output: 90.5% (inactive)

Task: What do you get for CC1CCN(CCCCCOc2ccc3oc4ccccc4c(=O)c3c2)CC1 ?
Output: 81.8% (inactive)

Task: Follow-up item: C#C[C@@]1(O)[C@@H](CO)O[C@@H](n2ccc3c(N)ncnc32)[C@@H]1O
Output: 0.612% (active)

Task: // repeat for O=C1CCc2ccccc2N1 and report
Output: 110% (inactive)

Task: Now consider CC1(C)Cc2c(Br)c(Br)c(Br)c(OCC(O)CN3CCOCC3)c2O1 (stereo unspecified) .
Output: 93.8% (inactive)

Task: Proceed to CCOC(=O)C1CCN(S(=O)(=O)/N=C2/NC(=O)NC2=C(Cl)Cl)CC1
Output: 7.43% (active)

Task: Queued: COc1ccc2oc(=O)cc(-c3nc4ccc(N)cc4[nH]3)c2c1
Output: 102% (inactive)

Task: Input COc1ccc(C(=S)c2cc(OC)c(OC)c(OC)c2)cc1OC(=O)CCl
Output: 7.23% (active)

Task: Repeat with Cc1nc2sc(C(=O)Nc3ccccc3)c(N)c2cc1C(C)O (stereo unspecified)
Output: 11.2% (inactive)

Task: Cool, now COc1ccc(C(=O)c2cc(OC)c(OC)c(OC)c2)cc1OC(=O)C(Cl)(Cl)Cl
Output: 5.08% (active)

Task: What about COC(=O)/C=C1\SC(=Nc2cccc(OC)c2)N(CCc2c[nH]c3ccccc23)C1=O ?
Output: 80.7% (inactive)

Task: # iterate: Nc1cccc(C(=O)Nc2ccc3c(O)c(N=Nc4ccc(N=Nc5ccc(S(=O)(=O)O)cc5)cc4)c(S(=O)(=O)O)cc3c2)c1
Output: 106% (inactive)

Task: Similarly, COCCOCCOCc1n(Cc2ccc3ccccc3n2)c2ccccc2[n+]1Cc1ccc2ccccc2n1 ?
Output: 16.5% (inactive)

Task: Would you mind doing C=C1C(=O)O[C@H]2[C@H]1CC/C(COC(=O)c1cccnc1)=C\CC[C@@]1(C)O[C@@H]21 as well?
Output: 84.8% (inactive)

Task: Next entry: CC(=O)OCC1SC(OC(C)=O)C(NC(=O)/C=C/CCl)C(OC(C)=O)C1OC(C)=O (stereo unspecified)
Output: 102% (inactive)

Task: Note, next up: Cc1ccn2c3c(c(C(=O)O)c2c1)C(=O)c1ccccc1C3=O
Output: -22.4% (active)

Task: How about this molecule: O=C1NCc2ccc3c(-c4cccc(Cl)c4)c[nH]c3c21
Output: 12.9% (inactive)

====

# Test system: UO-31 renal
# Procedure Text: NCI-60 one-dose screen, 48 h
# Condition Label: 10 µM unless noted
This is part of a sample that, as a whole, favours compounds with a hit. Of some 83,000 tested, about 20% had one in any assay. The source made the active and inactive calls. How the source made its calls: active means growth percent below 10; inactive means the rest.
Select the correct class. Options are active, inactive and nothing else.

Task: Answer briefly: the call reported for O=C(Nc1cc(Br)ccn1)c1cc2cc(Nc3nc(-c4ccccc4)nc4ccccc34)ccc2oc1=O in this assay.
Output: inactive

Task: Okay, and CCCCc1n(Cc2ccc3ccccc3c2)c2ccccc2[n+]1Cc1ccc2ccccc2c1 ?
Output: active

Task: Would you kindly repeat that for COc1cc(C(=O)N2CCN(c3ccccc3OC)CC2)c(NC(=O)c2cnccn2)cc1OCc1ccccc1 ?
Output: inactive

Task: Can you handle O=C1NN(c2ccccc2)C(c2ccc3c(c2)OCO3)N2CCC[C@@H]12 (some centres not stated) next?
Output: inactive

Task: Do the same for C=C1C(=O)O[C@H]2[C@H]1CC/C(COC(=O)CCCCC(=O)OC/C1=C/CC[C@@]3(C)O[C@H]3[C@H]3OC(=O)C(=C)[C@@H]3CC1)=C\CC[C@@]1(C)O[C@@H]21 please
Output: inactive

Task: Follow-up item: CCCCn1c(=O)c(/C=C/C(=O)/C=C/c2cc3ccccc3n(CCCC)c2=O)cc2ccccc21
Output: active

Task: Try this compound next: CC1(C)Cc2c(Br)c(Br)c(Br)c(OCC(O)CN3CCOCC3)c2O1 (configuration not stated)
Output: active

Task: Field entry: C[C@]12CC[C@@H]3c4ccc(O)cc4CC[C@H]3[C@@H]1C[C@H](O)C2
Output: inactive

Task: Try this compound too: O=C(/C(=C/c1ccc([N+](=O)[O-])cc1)SCc1ccc(Cl)cc1)c1ccc(F)cc1
Output: inactive

Task: One more compound: C=CCn1c(CN2CCN(c3cc4c(cc3F)c(=O)c(C(=O)O)cn4C3CC3)CC2)n[nH]c1=S
Output: inactive

Task: Here is the next compound: COC(=O)c1cc2c3c(cc(O)c2[nH]1)N(C(=O)C1Cc2cc(OC)c(OC)c(OC)c2N1)CC3CCl (configuration not stated)
Output: active

Task: // query: COc1cccc(NC(=O)Nc2ccc(Nc3ncnc4[nH]c(C)c(C)c34)cc2)c1
Output: inactive

Task: Again, but for O=C1NN(c2ccccc2)C(c2ccc(Cl)cc2)N2CCC[C@H]12 (some centres not stated)
Output: inactive

Task: Same again, this time with CC(=O)ON1CCCC(P(=O)(OCOC(=O)C(C)(C)C)OCOC(=O)C(C)(C)C)C1=O (configuration not stated)
Output: active

Task: What do you have for O=[N+]([O-])c1ccc(N=Nc2c(O)c(N=Nc3cc([N+](=O)[O-])cc([N+](=O)[O-])c3O)cc(N=Nc3cc(S(=O)(=O)O)cc4cc(S(=O)(=O)O)cc(O)c34)c2O)cc1 ?
Output: inactive

Task: Cool, now COC(=O)/C=C/c1cc(OC)c2c(c1)[C@@H](C(=O)OC)[C@H](c1ccc(OC)c(OC)c1)O2
Output: inactive

Task: What do you have for Cn1c2c(c3ccc(-c4ccn[nH]4)cc3c1=O)C(=O)c1ccccc1-2 ?
Output: inactive

====

Please respond with reported growth for every item in the list.
# Test system: K-562 leukemia
# Procedure Text: NCI-60 one-dose screen, 48 h (100 = growth as untreated, 0 = no growth, -100 = all killed)
# Condition Label: 10 µM unless noted
This is part of a sample that, as a whole, favours compounds with a hit. Of some 83,000 tested, about 20% had one in any assay.
Give the value in % but do not write % after it.

Task: I have this compound here, O=C1CCC23OC(C(O)c4ccccc4N12)C1C(Br)=NOC13 (stereo not given) , and I need its recorded growth.
Output: 96.3

Task: Then what about the compound COc1ccc(-c2nc(C#N)c(NCC(c3ccco3)N3CCCC3)o2)cc1 (stereo not given) ?
Output: 20.6

Task: Here is the next compound: COCCOC(=O)COc1ccc(OC)cc1
Output: 104

Task: CCOC(=O)c1cnn(-c2nc(-c3ccc(F)cc3)c(C#N)c(N3CCOCC3)n2)c1N , same question.
Output: 91.8

Task: Entry COc1ccc2c(c1)C1(C(=O)N2)C(C#N)=C(c2ccccc2)Nc2c1c(-c1ccccc1)nn2-c1ccccc1 (stereo not given) please
Output: 70.4
